system: EPHA4; details: concentration: 1 μM, replicates: in singlicate; n = 1;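 further: KINOMEscan kinase panel screen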
Overview of recorded %Inh for various compounds
readout.type: %Inh (%)

query.smiles | readout.type | value.observed
CC(C)(C)c1ccc(C(=O)Nc2cn3cc(Cl)ccc3n2)cc1 | %Inh | 0
Cn1cncc1-c1ccc2ncnc(Nc3ccc(OCc4ccccc4)cc3)c2c1 | %Inh | 13
CCn1c(-c2cccnc2O)nc2cnccc21 | %Inh | 0
Cc1c(O)cccc1Nc1ccnc2ccc(C(F)(F)F)cc12.Cl | %Inh | 0
Cc1ccc(C(=O)Nc2ccc(Nc3ccnc4cc(-c5ccccn5)ccc34)cc2O)cc1.Cl | %Inh | 0

====

Overview of recorded %Inh for various molecules
system: MST2; construct: gene STK3; conditions: concentration: 1 μM, replicates: in singlicate; n = 1
readout.type: %Inh (%)

molecule | study.target | value.observed
O=C(Nc1n[nH]c2cc(-c3cccc(F)c3F)ccc12)C1CC1 | MST2 | 31
Cc1nnc(-c2ccc3occ(-c4ccc(S(C)=O)cc4)c3c2)[nH]1 (stereo not drawn) | MST2 | 0
Cc1cccc(-c2nc(Nc3ccncc3)c3ccccc3n2)n1 | MST2 | 0
Cc1c(Cn2ccn3c(=O)cc(N4CCOCC4)nc23)cccc1C(F)(F)F | MST2 | 0
COc1ccc(Nc2nccc(NCCNC(=O)Nc3ccccc3F)n2)cc1 | MST2 | 0
NC(=O)c1nnc2ccccc2c1N | MST2 | 65
O=C(Nc1n[nH]c2nc(-c3nccs3)c(Br)cc12)C1CC1 | MST2 | 0
Cc1cc(NCC(c2ccccc2)c2ccccc2)nc(NCc2ccc(C(F)(F)F)cc2)n1 | MST2 | 0
Cc1cccc(-c2nc(Nc3cccc(C(N)=O)c3)c3ccccc3n2)n1 | MST2 | 20
Cc1cccc(-c2nc(-c3ccc(S(C)(=O)=O)cc3)sc2-c2ccnc(NCCc3ccccc3)c2)c1 | MST2 | 4
COC(=O)c1c(-c2ccccc2)c2cc(OC)ccc2c(=O)n1Cc1ccccc1 | MST2 | 26
Fc1cc(Cl)ccc1Nc1ccnc2cc(-c3ccc(CN4CCCCC4)o3)ccc12 | MST2 | 0

====

system: SIK; details: concentration: 1 μM, replicates: in singlicate; n = 1
# cutoff 7% applies to %Inh; >= gives Satisfied, < gives Not satisfied

molecule | category
Clc1cc(Cl)cc(Nc2ccnc(Nc3cc(Cl)cc(Cl)c3)n2)c1 | Satisfied
NC(=O)c1nnc2ccccc2c1N | Satisfied
O=C(O)COc1ncnc2cc(-c3ccc4[nH]ncc4c3)sc12 | Satisfied
Nc1nc(-c2nccs2)c(-c2ccnc3ccccc23)s1 | Not satisfied
Fc1cc(Cl)ccc1Nc1ccnc2cc(I)ccc12 | Satisfied
CCn1c(-c2cccnc2O)nc2cnccc21 | Not satisfied
O=c1cc(N2CCOCC2)nc2n(Cc3cccc(Cl)c3Cl)ccn12 | Not satisfied
Cc1cccc(-c2nc(Nc3cccc(C(N)=O)c3)c3ccccc3n2)n1 | Satisfied
Cn1ccc2ncnc(Oc3ccc(Nc4nc5ccccc5[nH]4)cc3)c21 | Not satisfied
CN1C(=O)C(Nc2ccc(Cl)c(C(=O)O)c2)=C(c2ccc(Cl)cc2)C1=O | Not satisfied
Cn1ccc2ncnc(Oc3cccc(C(=O)Nc4ccccc4)c3)c21 | Satisfied
COc1ccccc1CNC(=O)c1cc(C(=O)c2ccccc2C)c[nH]1 | Satisfied
COc1ccc2nc(-c3cccc(C)n3)nc(Nc3ccncc3)c2c1 | Not satisfied
Cl.c1ccc(-c2n[nH]cc2-c2ccnc(-c3ccc(CN4CCOCC4)cc3)c2)nc1 | Satisfied
COC(=O)c1c(-c2ccccc2)c2cc(OC)ccc2c(=O)n1Cc1ccccc1 | Not satisfied
CC1=C(C(=O)Nc2cc3cn[nH]c3cc2F)C(c2ccc(C(F)(F)F)cc2)CC(=O)N1 (stereo not shown) | Not satisfied
COc1cc(Nc2nccc(N3CCC(NC(=O)Nc4cc(C)ccc4C)C3)n2)cc(OC)c1OC (stereo not shown) | Not satisfied

====

tested on: YANK3; construct: gene STK32C; details: concentration: 1 μM, replicates: in singlicate; n = 1
Could you mark each record 1 (yes) if its %Inh falls strictly under 20%, and 0 (no) if it equals or exceeds it?

compound | category
Cn1ccc2ncnc(Oc3cccc(C(=O)Nc4ccccc4)c3)c21 | 0 (no)
Cl.NC(=O)c1cccc(Nc2nccc(Nc3ccc(Oc4cccc(Cl)c4)c(Cl)c3)n2)c1 [GW659008] | 0 (no)
COc1cc2ncnc(Nc3ccc4nc(-c5ccccc5)[nH]c4c3)c2cc1OC.Cl [GW282450] | 1 (yes)
COc1ccc(Nc2nccc(-c3cccc(NC(=O)c4cc5cc(F)ccc5[nH]4)c3)n2)cc1 [GSK1229782] | 0 (no)
O=C(Nc1ccc2c(c1)OCO2)NC1CCN(c2ccnc(Nc3ccc(F)cc3)n2)C1 (stereo not drawn) [GSK1379724] | 1 (yes)
COc1ccccc1CNC(=O)c1cc(C(=O)c2ccccc2C)c[nH]1 [GSK364507] | 0 (no)
Cc1cccc(-c2nc(C)cc(Nc3ccncc3)n2)n1 [GSK257997] | 1 (yes)
Clc1cc(Cl)cc(Nc2ccnc(Nc3cc(Cl)cc(Cl)c3)n2)c1 [GSK175726] | 1 (yes)

====

test system: PAK2; conditions: concentration: 1 μM, replicates: in singlicate; n = 1

compound | %Inh [%]
Cc1cccc(-c2nc(-c3ccc(S(C)(=O)=O)cc3)sc2-c2ccnc(NCCc3ccccc3)c2)c1 | 20
CCn1c(-c2ccccn2)nc2cnccc21 [SB-736398] | 24
Clc1cc(Cl)cc(Nc2ccnc(Nc3cc(Cl)cc(Cl)c3)n2)c1 [GSK175726] | 0
Cl.c1ccc(-c2n[nH]cc2-c2ccnc(-c3ccc(CN4CCOCC4)cc3)c2)nc1 [GW776245] | 14
Fc1cccc(COc2nnc(-c3ccc4c(c3)CCO4)o2)c1 | 55

====

Overview of recorded %Inh for various molecules
system: RPS6KA5(Kin.Dom.2-C-terminal); conditions: concentration: 1 μM, replicates: in singlicate; n = 1

molecule | %Inh (%)
CCCc1ccc(S(=O)(=O)NC2CCN(c3ccnc(Nc4ccc(F)cc4)n3)C2)cc1 (stereo not drawn) | 0
C[C@@H]1CCCCN1c1cc(-c2ccc3c(N)n[nH]c3c2)nc(N)n1 | 10
Fc1cccc(COc2nnc(-c3ccc4c(c3)CCO4)o2)c1 | 9
COC(=O)c1c(-c2ccccc2)c2cc(C(=O)O)ccc2c(=O)n1Cc1ccccc1 | 0
Cc1cccc(-c2nc(Nc3ccc4[nH]ncc4c3)c3ccccc3n2)n1 | 5
CCn1c(-c2ccccn2)nc2cnccc21 | 0
O=C(Nc1n[nH]c2nc(-c3nccs3)c(Br)cc12)C1CCCC1 | 0
Cn1cncc1-c1ccc2ncnc(Nc3ccc(OCc4ccccc4)cc3)c2c1 | 0
Nc1nc(-c2nccs2)c(-c2ccnc3ccccc23)s1 | 0
COc1ccc(CNC(=O)NC2CCN(c3ccnc(Nc4cc(OC)c(OC)c(OC)c4)n3)C2)cc1 (stereo not drawn) | 21
CC1=C(C(=O)Nc2cc3cn[nH]c3cc2F)C(c2ccc(C(F)(F)F)cc2)CC(=O)N1 (stereo not drawn) | 0
CS(=O)(=O)c1ccc(-c2c(-c3ncn[nH]3)sc(N3CCOCC3)c2C#N)cc1 | 0
Cc1cc(NCC(c2ccccc2)c2ccccc2)nc(NCc2ccc(C(F)(F)F)cc2)n1 | 1
COc1ccccc1-c1ccc2c(NC(=O)C3CC3)n[nH]c2n1 | 12
Cc1cccc(-c2nc(Nc3cccc(C(N)=O)c3)c3ccccc3n2)n1 | 0
CC(=O)Nc1nc2cnc(Nc3cc(NC(=O)c4cccc(CCC#N)c4)ccc3C)nc2s1 | 2
Cc1cccc(-c2nc(Nc3ccncc3)c3ccccc3n2)n1 | 4
Cc1ccc(NC(=O)Nc2cccc(Cl)c2)cc1-c1ccc(C(=O)Nc2ccncc2)cc1 | 39
Cl.Oc1ccc(-c2nc(-c3ccccc3)[nH]c2-c2ccncc2)cc1 | 11
COc1cc2nccc(Nc3ccc(NC(=O)c4ccc(C)cc4)c(O)c3)c2cc1OC.Cl | 0
COc1cc2ncn(-c3cc(OCC4CCCO4)c(C(N)=O)s3)c2cc1OC (stereo not drawn) | 8
Cn1ccc2ncnc(Oc3cccc(C(=O)Nc4ccccc4)c3)c21 | 0
Cl.NC(=O)c1cccc(Nc2nccc(Nc3ccc(Oc4cccc(Cl)c4)c(Cl)c3)n2)c1 | 11
COC(=O)c1c(-c2ccccc2)c2cc(OC)ccc2c(=O)n1Cc1ccccc1 | 0
O=c1cc(N2CCOCC2)nc2n(Cc3cccc(Cl)c3Cl)ccn12 | 0
Cc1cccc(-c2nc(-c3ccc(S(C)(=O)=O)cc3)sc2-c2ccnc(NCCc3ccccc3)c2)c1 | 0
CS(=O)(=O)c1ccc(-c2nc3n(c2-c2ccncc2)CCC3)cc1 | 0
Clc1cc(Cl)cc(Nc2ccnc(Nc3cc(Cl)cc(Cl)c3)n2)c1 | 9
Cc1c(O)cccc1Nc1ccnc2ccc(C(F)(F)F)cc12.Cl | 0
Cc1nnc(-c2ccc3occ(-c4ccc(S(C)=O)cc4)c3c2)[nH]1 (stereo not drawn) | 15

====

tested on: STK36; conditions: concentration: 1 μM, replicates: in singlicate; n = 1
Overview of recorded %Inh for various compounds
readout.type: %Inh (%)

query.smiles | readout.type | value.observed
CC(=O)Nc1nc2cnc(Nc3cc(NC(=O)c4cccc(CCC#N)c4)ccc3C)nc2s1 | %Inh | 16
CS(=O)(=O)c1ccc(-c2nc3n(c2-c2ccncc2)CCC3)cc1 | %Inh | 0
Cc1ccc(-c2cc(-c3c[nH]nc3-c3ccccn3)ccn2)cc1 | %Inh | 23
